Origin of values: patent US11370761B2

Biological target: human Cav3.2 channel (Homo sapiens)
Sequence (O95180 whole entry): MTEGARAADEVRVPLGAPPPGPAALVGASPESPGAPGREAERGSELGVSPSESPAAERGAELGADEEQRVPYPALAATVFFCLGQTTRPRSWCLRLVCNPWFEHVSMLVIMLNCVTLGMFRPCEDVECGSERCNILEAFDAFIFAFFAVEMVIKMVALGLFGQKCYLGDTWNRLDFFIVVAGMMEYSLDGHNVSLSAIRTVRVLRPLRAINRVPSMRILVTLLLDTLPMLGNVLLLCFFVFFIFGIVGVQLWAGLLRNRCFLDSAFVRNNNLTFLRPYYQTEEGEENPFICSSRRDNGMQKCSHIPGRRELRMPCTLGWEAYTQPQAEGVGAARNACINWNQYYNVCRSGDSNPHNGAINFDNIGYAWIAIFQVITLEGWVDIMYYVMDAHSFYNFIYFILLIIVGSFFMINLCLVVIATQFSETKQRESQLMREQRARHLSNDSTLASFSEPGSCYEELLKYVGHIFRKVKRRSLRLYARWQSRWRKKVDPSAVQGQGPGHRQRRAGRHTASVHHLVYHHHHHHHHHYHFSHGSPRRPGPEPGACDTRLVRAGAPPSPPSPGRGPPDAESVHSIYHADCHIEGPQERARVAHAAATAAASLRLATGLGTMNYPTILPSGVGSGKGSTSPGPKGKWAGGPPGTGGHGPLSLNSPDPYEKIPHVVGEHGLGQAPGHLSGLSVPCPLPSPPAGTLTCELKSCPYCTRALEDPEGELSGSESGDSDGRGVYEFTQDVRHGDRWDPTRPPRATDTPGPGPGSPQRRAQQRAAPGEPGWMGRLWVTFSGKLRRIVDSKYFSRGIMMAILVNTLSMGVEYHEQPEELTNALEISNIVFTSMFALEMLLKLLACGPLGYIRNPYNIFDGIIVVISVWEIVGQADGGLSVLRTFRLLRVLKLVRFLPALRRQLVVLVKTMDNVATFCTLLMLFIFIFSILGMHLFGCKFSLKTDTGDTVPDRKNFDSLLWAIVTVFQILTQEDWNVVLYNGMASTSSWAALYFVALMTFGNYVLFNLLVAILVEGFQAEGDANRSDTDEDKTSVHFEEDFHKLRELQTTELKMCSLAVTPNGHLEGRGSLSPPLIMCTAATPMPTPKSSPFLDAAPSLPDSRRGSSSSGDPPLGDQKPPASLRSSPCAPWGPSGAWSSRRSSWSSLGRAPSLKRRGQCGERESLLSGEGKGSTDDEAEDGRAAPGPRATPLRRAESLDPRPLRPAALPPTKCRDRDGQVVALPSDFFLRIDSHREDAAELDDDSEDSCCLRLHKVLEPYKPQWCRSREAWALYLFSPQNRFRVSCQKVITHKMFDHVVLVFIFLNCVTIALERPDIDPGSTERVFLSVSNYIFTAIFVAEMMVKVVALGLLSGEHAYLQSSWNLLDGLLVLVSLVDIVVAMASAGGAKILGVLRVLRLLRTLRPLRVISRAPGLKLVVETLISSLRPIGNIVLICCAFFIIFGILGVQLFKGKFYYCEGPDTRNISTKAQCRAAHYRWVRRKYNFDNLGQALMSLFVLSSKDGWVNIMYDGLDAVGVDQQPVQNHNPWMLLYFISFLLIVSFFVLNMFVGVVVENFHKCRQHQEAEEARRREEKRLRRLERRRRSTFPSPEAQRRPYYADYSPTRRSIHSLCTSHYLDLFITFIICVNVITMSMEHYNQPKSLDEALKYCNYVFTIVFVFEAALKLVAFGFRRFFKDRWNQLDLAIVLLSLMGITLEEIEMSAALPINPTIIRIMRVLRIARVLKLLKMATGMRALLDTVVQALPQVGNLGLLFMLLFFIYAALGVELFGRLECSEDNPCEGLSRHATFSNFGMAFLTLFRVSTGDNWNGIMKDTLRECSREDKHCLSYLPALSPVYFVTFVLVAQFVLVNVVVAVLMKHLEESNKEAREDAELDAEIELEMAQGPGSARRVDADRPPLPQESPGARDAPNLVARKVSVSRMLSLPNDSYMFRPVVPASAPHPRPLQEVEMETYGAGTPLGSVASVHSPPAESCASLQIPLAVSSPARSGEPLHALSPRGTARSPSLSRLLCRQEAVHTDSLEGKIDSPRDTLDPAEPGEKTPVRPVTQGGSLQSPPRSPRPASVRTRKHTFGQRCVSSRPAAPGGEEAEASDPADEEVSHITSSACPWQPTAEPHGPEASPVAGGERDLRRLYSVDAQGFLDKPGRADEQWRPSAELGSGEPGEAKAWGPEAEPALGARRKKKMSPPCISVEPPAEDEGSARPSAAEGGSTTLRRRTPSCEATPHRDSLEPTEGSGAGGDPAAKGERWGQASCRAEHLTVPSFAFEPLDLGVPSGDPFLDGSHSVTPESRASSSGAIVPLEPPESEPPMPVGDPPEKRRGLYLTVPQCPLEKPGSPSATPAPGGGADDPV
Experiment: Intracellular calcium concentration measurement in human Cav3.2 channel expressing stable cell line (Pharmacological Test 1)
Settings: HEK293 cells stably expressing human Cav3.2, Fluo-4 AM fluorescence, KCl stimulation; read-out: Cav3.2 channel inhibitory action
property-measured: IC50

These solved cases illustrate the format of a correct answer.
molecule: CCC(=O)N1CCC(NC(=O)C(C)NC(=O)C2CC2c2nc3ccccc3[nH]2)CC1 (stereo not shown) [Example 13]
result: > 10000 nM
--
molecule: O=C(CNC(=O)[C@@H]1C[C@H]1c1nc2ccccc2[nH]1)Nc1ccc(C(F)(F)F)cc1 (relative stereo) [Example 20]
result: 100 to 1000 nM
--
molecule: CC(NC(=O)C1CC1c1nc2ccccc2[nH]1)C(=O)Nc1cccc(C(F)(F)F)c1 (single isomer, unassigned) [Example 38A]
result: ≤ 100 nM

Task item: # IC50 lookup, item CC(NC(=O)C1CC1c1nc2ccccc2[nH]1)C(=O)Nc1ccc(C#N)cc1 (single isomer, unassigned) [Example 6B]
Reply: 1000 to 10000 nM

Task item: # IC50 lookup, item CC(NC(=O)C1CC1c1nc2ccccc2[nH]1)C(=O)Nc1ccc(C(F)(F)F)cc1 (single isomer, unassigned) [Example 4A]
Reply: 100 to 1000 nM

Task item: # IC50 lookup, item O=C(CNC(=O)[C@H]1C[C@@H]1c1nc2ccccc2[nH]1)Nc1cccc(C(F)(F)F)c1 [Example 39]
Reply: ≤ 100 nM

Task item: # IC50 lookup, item CC(NC(=O)C1CC1c1nc2ccccc2[nH]1)C(=O)Nc1ccc(Cl)cc1 (single isomer, unassigned) [Example 16B]
Reply: 1000 to 10000 nM
